subject_of_test: AcHE (Homo sapiens, UniProt P22303)
Sequence (P22303 32-614): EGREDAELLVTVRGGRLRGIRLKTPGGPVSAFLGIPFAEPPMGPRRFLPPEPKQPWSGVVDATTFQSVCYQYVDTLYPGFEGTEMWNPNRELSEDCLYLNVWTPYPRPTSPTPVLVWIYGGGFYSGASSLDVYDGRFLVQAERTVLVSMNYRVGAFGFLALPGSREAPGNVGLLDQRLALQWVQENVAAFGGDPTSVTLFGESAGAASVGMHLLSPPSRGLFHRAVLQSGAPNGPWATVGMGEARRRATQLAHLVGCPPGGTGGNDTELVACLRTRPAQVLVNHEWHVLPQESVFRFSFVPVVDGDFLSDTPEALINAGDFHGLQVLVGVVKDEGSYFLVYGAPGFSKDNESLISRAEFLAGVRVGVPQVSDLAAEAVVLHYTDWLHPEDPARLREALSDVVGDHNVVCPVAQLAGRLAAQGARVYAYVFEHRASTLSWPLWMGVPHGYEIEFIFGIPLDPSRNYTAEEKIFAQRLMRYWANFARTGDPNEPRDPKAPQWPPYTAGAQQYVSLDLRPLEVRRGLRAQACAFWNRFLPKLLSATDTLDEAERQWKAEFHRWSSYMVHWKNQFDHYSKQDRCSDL
method_summary: AcHE inhibition
Format: biochemical
test_settings: read-out: IC50 AcHE
pIC50: −log10 of the molar value.

compound	subject_of_test	pIC50
COCCOCCOC(=O)NC(c1ccc(NC(=N)N)cc1)P(=O)(Oc1ccccc1)Oc1ccccc1.O=C(O)C(F)(F)F (centres unmarked) [Compound 28, 2,2,2-trifluoroacetate]	AcHE (Homo sapiens, UniProt P22303)	3.60 to 5.00
N=C(N)Nc1ccc(C(NC(=O)OCCOc2ccccc2)P(=O)(Oc2ccccc2)Oc2ccccc2)cc1.O=C(O)C(F)(F)F (centres unmarked) [Compound 30, 2,2,2-trifluoroacetate]	AcHE (Homo sapiens, UniProt P22303)	3.60 to 5.00

###

subject_of_test: KLK1 (human) (Homo sapiens, UniProt P06870)
Construct: purchased Prospec
Sequence (P06870 25-262): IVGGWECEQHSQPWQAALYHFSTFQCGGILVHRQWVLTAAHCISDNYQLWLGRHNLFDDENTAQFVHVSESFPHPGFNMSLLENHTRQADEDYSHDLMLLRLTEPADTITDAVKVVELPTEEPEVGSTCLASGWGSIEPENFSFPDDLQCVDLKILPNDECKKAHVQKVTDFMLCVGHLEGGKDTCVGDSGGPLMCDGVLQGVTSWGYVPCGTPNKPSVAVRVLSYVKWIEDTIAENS
method_summary: KLK1 inhibition, fluorogenic substrate H-Pro-Phe-Arg-AMC
Assay type: biochemical
test_settings: Tris buffer pH 7.8; read-out: IC50 KLK1
pIC50: −log10 of the molar value.

molecule	pIC50
N=C(N)Nc1ccc(C(NC(=O)OCCOCCOCc2cn(CCOCCOCCOCCNC(=O)CCCC[C@H]3SC[C@H]4NC(=O)N[C@H]43)nn2)P(=O)(Oc2ccccc2)Oc2ccccc2)cc1 (stereo partly drawn)	5.00 to 5.60
N=C(N)Nc1ccc(C(NC(=O)OCCOc2ccccc2)P(=O)(Oc2ccccc2)Oc2ccccc2)cc1.O=C(O)C(F)(F)F (stereo not drawn) [Compound 30, 2,2,2-trifluoroacetate]	5.00 to 5.60
COCCOCCOC(=O)NC(c1ccc(NC(=N)N)cc1)P(=O)(Oc1ccccc1)Oc1ccccc1.O=C(O)C(F)(F)F (stereo not drawn) [Compound 28, 2,2,2-trifluoroacetate]	3.60 to 5.00

###

subject_of_test: Neurtophil Elastase(human) (Homo sapiens)
Construct: purchased Enzo-life sciences
Sequence (P08246 30-267): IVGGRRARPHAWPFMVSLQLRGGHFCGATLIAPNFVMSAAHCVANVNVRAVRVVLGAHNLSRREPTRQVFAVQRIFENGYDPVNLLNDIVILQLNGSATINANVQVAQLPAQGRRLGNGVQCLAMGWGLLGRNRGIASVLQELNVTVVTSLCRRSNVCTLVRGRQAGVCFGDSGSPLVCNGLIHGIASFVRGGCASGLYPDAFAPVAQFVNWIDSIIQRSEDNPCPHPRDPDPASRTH
method_summary: Neutrophil elastase inhibition, chromogenic substrate MeOSuc-Ala-Ala-Pro-Val-pNA
Format: biochemical
pIC50: −log10 of the molar value.
quantity_measured: pIC50

compound	subject_of_test	result
CCCCCC(=O)NCCOC(=O)NC(c1ccc(NC(=N)N)cc1)P(=O)(Oc1ccccc1)Oc1ccccc1 (stereo not drawn) [Compound 31]	Neurtophil Elastase(human) (Homo sapiens)	3.60 to 5.00
N=C(N)Nc1ccc(CC(NC(=O)OCc2ccccc2)P(=O)(Oc2ccccc2)Oc2ccccc2)cc1 (stereo not drawn) [UPA1, reference compound]	Neurtophil Elastase(human) (Homo sapiens)	3.60 to 5.00
COCCOC(=O)NC(c1ccc(NC(=N)N)cc1)P(=O)(Oc1ccccc1)Oc1ccccc1 (stereo not drawn) [Compound 29, 2,2,2-trifluoroacetate]	Neurtophil Elastase(human) (Homo sapiens)	5.00 to 5.60
N=C(N)Nc1ccc(C(NC(=O)OCc2ccccc2)P(=O)(Oc2ccccc2)Oc2ccccc2)cc1 (stereo not drawn) [Compound 5a, 2,2,2-trifluoroacetate, reference compound]	Neurtophil Elastase(human) (Homo sapiens)	3.60 to 5.00
CCCCCCOC(=O)NC(c1ccc(NC(=N)N)cc1)P(=O)(Oc1ccccc1)Oc1ccccc1 (stereo not drawn) [Compound 92]	Neurtophil Elastase(human) (Homo sapiens)	5.00 to 5.60
C#CCOCCOCCOC(=O)NC(c1ccc(NC(=N)N)cc1)P(=O)(Oc1ccccc1)Oc1ccccc1.O=C(O)C(F)(F)F (stereo not drawn) [Compound 27, 2,2,2-trifluoroacetate]	Neurtophil Elastase(human) (Homo sapiens)	5.00 to 5.60
